Target: Plasma kallikrein (Homo sapiens, UniProt P03952)
Sequence (P03952 20-390 limits assumed): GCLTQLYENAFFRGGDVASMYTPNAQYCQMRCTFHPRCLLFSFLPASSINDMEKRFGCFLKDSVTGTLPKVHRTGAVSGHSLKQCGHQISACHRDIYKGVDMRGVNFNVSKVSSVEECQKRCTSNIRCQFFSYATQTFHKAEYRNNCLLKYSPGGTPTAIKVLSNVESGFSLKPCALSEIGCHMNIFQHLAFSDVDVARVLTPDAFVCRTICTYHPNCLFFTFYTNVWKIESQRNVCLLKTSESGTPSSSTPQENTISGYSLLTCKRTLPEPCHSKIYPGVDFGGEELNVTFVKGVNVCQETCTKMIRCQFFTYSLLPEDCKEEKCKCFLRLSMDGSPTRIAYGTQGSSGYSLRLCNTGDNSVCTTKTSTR
Sequence (P03952 391-638 limits assumed): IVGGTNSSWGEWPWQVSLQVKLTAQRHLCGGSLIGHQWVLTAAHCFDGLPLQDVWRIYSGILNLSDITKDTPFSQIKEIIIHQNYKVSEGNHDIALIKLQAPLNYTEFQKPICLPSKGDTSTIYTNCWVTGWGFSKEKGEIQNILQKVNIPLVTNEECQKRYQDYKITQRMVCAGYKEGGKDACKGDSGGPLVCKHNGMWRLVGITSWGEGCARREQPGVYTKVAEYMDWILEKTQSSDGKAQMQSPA
Assay: Evaluation of the Inhibition of PKK Using an Endpoint Assay
Method: Subsequently, PPACK II (Calbiochem) was added as a stop solution to achieve a final concentration of 1 μM and fluorescence was measured using an Envision Reader (PerkinElmer) with the wavelength excitation setting of 355 nm and the wavelength emission setting of 460 nm.
attribute measured: pIC50
Entry type: numeric. Quantity: pIC50, the -log10 of concentration in molar units.

Exam item: Write down the reported pIC50 of Cc1nc(N2C[C@@H]3[C@@H](N)[C@@H]3C2)ccc1Cn1cc(C(=O)NCc2cc(Cl)ccc2-n2cnnn2)cn1 , test system: Plasma kallikrein (Homo sapiens, UniProt P03952).
Marked response: 7.42
